- Test system: human erythrocytes (RBC's)
- Procedure details: Hemolysis assay, 50% lysis of RBC's
- Assay type: cell-based
Assay endpoint: HC50 (µM)
// return numeric value only (unit: µM, not printed)

CC(C)[C@@H](CC(N)=O)NC(=O)C[C@H](CCCCN)NC(=O)C[C@H](C)NC(=O)C[C@@H](NC(=O)C[C@H](CCCCN)NC(=O)C[C@H](C)NC(=O)C[C@@H](NC(=O)C[C@H](CCCCN)NC(=O)C[C@H](C)NC(=O)C[C@@H](NC(=O)C[C@H](CCCCN)NC(=O)C[C@H](C)N)C(C)C)C(C)C)C(C)C [Peptide 1]; 670

Query: Field request: HC50 | item: CC(C)[C@@H](CC(N)=O)NC(=O)C[C@H](CCCCN)NC(=O)C[C@H](C)NC(=O)C[C@@H](NC(=O)C[C@H](CCCCN)NC(=O)C[C@H](C)NC(=O)C[C@@H](NC(=O)C[C@H](CCCCN)NC(=O)C[C@H](C)NC(=O)C[C@@H](NC(=O)C[C@H](CCCCN)NC(=O)C[C@H](C)NC(=O)C[C@@H](NC(=O)C[C@H](CCCCN)NC(=O)C[C@H](C)N)C(C)C)C(C)C)C(C)C)C(C)C [Peptide 2]
Reply: 240
